Ref: ChEMBL document CHEMBL3596159

- measured.target: Beta-galactoside alpha-2,6-sialyltransferase 1 (Homo sapiens)
- Sequence (P15907 whole entry): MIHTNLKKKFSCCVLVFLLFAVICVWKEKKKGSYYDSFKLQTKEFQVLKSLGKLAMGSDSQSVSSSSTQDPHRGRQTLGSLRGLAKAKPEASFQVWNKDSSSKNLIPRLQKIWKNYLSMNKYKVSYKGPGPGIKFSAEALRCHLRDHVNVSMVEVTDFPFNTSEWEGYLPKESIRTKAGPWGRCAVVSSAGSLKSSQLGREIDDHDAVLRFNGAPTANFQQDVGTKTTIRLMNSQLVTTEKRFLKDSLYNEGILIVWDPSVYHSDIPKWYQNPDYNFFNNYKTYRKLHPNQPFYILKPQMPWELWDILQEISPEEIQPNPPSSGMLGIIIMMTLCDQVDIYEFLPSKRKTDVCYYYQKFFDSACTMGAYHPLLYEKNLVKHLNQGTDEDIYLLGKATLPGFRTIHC
- experiment.summary: Inhibition of human ST6Gal1
property: pIC50
Worth noting: pIC50 values are minus log10 of concentrations stated in mol/L.

O=c1c(O)c(-c2ccc(O)c(O)c2)oc2ccccc12 :: 5.12

Could you now look at the following compound, please?
Please look up its pIC50: O=c1cc(-c2ccc(O)c(O)c2)oc2ccccc12
5.15
